Tested on: TDF
test protocol: H1.0 immunofluorescence intensity relative to DMSO (% of DMSO); higher = stronger H1.0 induction, active = 120 or more
conditions: concentration: 10 µM; 24 h
observed property: H1.0 immunofluorescence intensity

{"compound": "Cl.O=C1CCC2(O)C3Cc4ccc(O)c5c4C2(CCN3CC2CC2)C1O5 (stereo not drawn) [Naltrexone.HCl]", "reported value": 90.5}
{"compound": "NC(Cc1cc(O)c(O)cc1O)C(=O)O (racemic) [6-Hydroxy-DL-DOPA]", "reported value": 97}
{"compound": "CN(C)C(=O)Oc1cccc([N+](C)(C)C)c1", "reported value": 96.8}
{"compound": "CC1=NN=C(c2ccc(N)cc2)c2cc3c(cc2C1)OCO3.Cl", "reported value": 106}
{"compound": "CC(=O)C1CCC2C3CCC4CC(O)CCC4(C)C3C(=O)CC12C (stereo not drawn)", "reported value": 94.1}
{"compound": "O=P1(N(CCCl)CCCl)NCCCO1 (stereo not drawn) [Cyclophosphamide]", "reported value": 101}
{"compound": "O=c1[nH]c2ccccc2n1C1CCN(Cc2ccc(-c3nc4cc5[nH]cnc5cc4nc3-c3ccccc3)cc2)CC1", "reported value": 105}
{"compound": "C=CCN1CC(C)N(C(c2ccc(C(=O)N(CC)CC)cc2)c2cccc(OC)c2)CC1C (stereo not drawn)", "reported value": 96.5}

----------
Tested on: HCC1569
test protocol: H1.0 immunofluorescence intensity relative to DMSO (% of DMSO); higher = stronger H1.0 induction, active = 140 or more
conditions: concentration: 10 µM; 24 h

{"molecule": "C[N+](C)(C)CCCCCCCCCC[N+](C)(C)C", "H1.0 immunofluorescence intensity": 102}
{"molecule": "Cc1c(C(=O)Nc2cccc(C(F)(F)F)c2)cc(-c2ccccc2)n1CCCN1CCOCC1", "H1.0 immunofluorescence intensity": 115}
{"molecule": "COc1cccc(C2(O)CCCCC2CN(C)C)c1 (centres undefined)", "H1.0 immunofluorescence intensity": 109}
{"molecule": "CC1OC(=O)C2CC3CCCCC3C(C=CC3CCCC(C)N3C)C12 (centres undefined)", "H1.0 immunofluorescence intensity": 87.4}
{"molecule": "Cl.Cl.Fc1ccc(C(OCCN2CCN(CCCc3ccccc3)CC2)c2ccc(F)cc2)cc1", "H1.0 immunofluorescence intensity": 124}
{"molecule": "CCCN(CCC)C(=O)Cc1c(-c2ccc(Cl)cc2)nc2ccc(Cl)cn12", "H1.0 immunofluorescence intensity": 115}
{"molecule": "CCCC[N+]1(C)C2CC(OC(=O)C(CO)c3ccccc3)CC1C1OC12.[Br-] (single isomer, unassigned; (-)) [(-)-Scopolamine,n-Butyl-, bromide]", "H1.0 immunofluorescence intensity": 109}
{"molecule": "CCCC(=O)OCC[N+](C)(C)C", "H1.0 immunofluorescence intensity": 111}
{"molecule": "CCC1C(C)=NN=C(c2ccc(OC)c(OC)c2)c2cc(OC)c(OC)cc21 (centres undefined)", "H1.0 immunofluorescence intensity": 90.9}

----------
System: TDF
test protocol: cell number relative to DMSO (% of DMSO); higher = more cells (less growth inhibition / toxicity)
conditions: concentration: 10 µM; 24 h
Where a name gives a salt, the structure may show the parent alone.
observed property: cell number

{"compound": "C[N+]1([O-])C2CC(OC(=O)C(CO)c3ccccc3)CC1C1OC12 (single isomer, unassigned; (-)) [(-)-Scopolamine N-oxide]", "measured on": "TDF", "reported value": 105}
{"compound": "O=C1CCCC2C3CCCN4CCCC(CN12)C34 (stereo unspecified)", "measured on": "TDF", "reported value": 94.7}
{"compound": "CCCCCCCCCCCCCCC(Br)C(=O)O (stereo unspecified)", "measured on": "TDF", "reported value": 107}
{"compound": "CC(C)(C)c1cc(C=C(C#N)C#N)cc(Br)c1O", "measured on": "TDF", "reported value": 99.1}
{"compound": "CC12CCC(O)CC1CCC1C2CCC2(C)C(c3ccc(=O)oc3)CCC12O (stereo unspecified)", "measured on": "TDF", "reported value": 45}
{"compound": "CCN1CC2(C)CCC(OC)C34C5CC6CCC(O)(C5C(=O)O6)C(C(O)C23)C14 (stereo unspecified)", "measured on": "TDF", "reported value": 105}
{"compound": "CC(=O)OCC12CCC(C)=CC1OC1C(O)C(OC(C)=O)C2(C)C12CO2 (stereo unspecified)", "measured on": "TDF", "reported value": 13.6}
{"compound": "CN1CCc2cc3c(cc2C1C1OC(=O)c2c1ccc1c2OCO1)OCO3 (single isomer, unassigned; (+)) [(+)-Bicuculline]", "measured on": "TDF", "reported value": 89.1}
{"compound": "Br.COc1c2c(cc3c1OCO3)CCN(C)C2 [Hydrocotarnine HBr]", "measured on": "TDF", "reported value": 107}
{"compound": "Nc1ncnc2c1ncn2C1OC(COP(=O)(O)CP(=O)(O)OP(=O)([O-])[O-])C(O)C1O.[Li+].[Li+] (stereo not drawn) [alpha,beta-Methylene adenosine 5'-triphosphate dilithium]", "measured on": "TDF", "reported value": 109}
{"compound": "NC(CP(=O)(O)O)C(=O)O (racemic)", "measured on": "TDF", "reported value": 104}
{"compound": "CC1CCC2C(C)C3C(CC4C5CC=C6CC(OC7OC(CO)C(O)C(OC8OC(CO)C(O)C(O)C8O)C7OC7OC(C)C(O)C(O)C7O)CCC6(C)C5CCC43C)N2C1 (racemic)", "measured on": "TDF", "reported value": 101}
{"compound": "CC(C)Oc1cccnc1N(C)C1CCN(Cc2ccc(I)cc2)CC1 [RBI-257 maleate]", "measured on": "TDF", "reported value": 98.1}
{"compound": "CN1C2CCCC1CC(=O)C2.Cl", "measured on": "TDF", "reported value": 89.2}
{"compound": "O=[N+]([O-])c1cc(O)c(O)c([N+](=O)[O-])c1", "measured on": "TDF", "reported value": 107}
{"compound": "CC(=O)c1c(O)c(C)c(O)c(Cc2c(O)c3c(c(C(=O)C=Cc4ccccc4)c2O)OC(C)(C)C=C3)c1O", "measured on": "TDF", "reported value": 77.9}
{"compound": "CCCN1CC(CSC)CC2c3cccc4[nH]cc(c34)CC21.CS(=O)(=O)O (stereo unspecified) [Pergolide mesylate]", "measured on": "TDF", "reported value": 102}
{"compound": "O=c1[nH]c2ccccc2n1C1CCN(Cc2ccc(-c3nc4cc5[nH]cnc5cc4nc3-c3ccccc3)cc2)CC1", "measured on": "TDF", "reported value": 81.2}
{"compound": "COc1ccc(C(=O)c2c(C)n(CCN3CCOCC3)c3cc(I)ccc23)cc1", "measured on": "TDF", "reported value": 82.3}
{"compound": "CC(N)Cc1c[nH]c2ccc(OCc3cccs3)cc12.Cl (stereo unspecified)", "measured on": "TDF", "reported value": 115}
{"compound": "Cl.NCC#Cc1ccccc1 [3-Phenylpropargylamine hydrochloride]", "measured on": "TDF", "reported value": 110}
{"compound": "CNCCc1c[nH]c2ccc(O)cc12.O=C(O)C(=O)O [N-omega-Methyl-5-hydroxytryptamine oxalate salt]", "measured on": "TDF", "reported value": 103}
{"compound": "Cl.c1ccc(C2CC2)c(OCC2=NCCN2)c1 [Cirazoline hydrochloride]", "measured on": "TDF", "reported value": 109}
{"compound": "Br.COC1CC=C2CCN3CCC4=C(CC(=O)OC4)C23C1 (stereo not drawn) [Dihydro-beta-erythroidine hydrobromide]", "measured on": "TDF", "reported value": 98.2}
{"compound": "CCC12C=CCN3CCC4(c5ccc(OC)cc5N(C)C4C(O)(C(=O)OC)C1OC(C)=O)C32 (stereo unspecified)", "measured on": "TDF", "reported value": 91.6}
{"compound": "c1cc2c(cc1C1OCC3C(c4ccc5c(c4)OCO5)OCC13)OCO2 (single isomer, unassigned; (-)) [(-)-Asarinin]", "measured on": "TDF", "reported value": 99.2}
{"compound": "C#CCN(C)C(C)Cc1ccccc1.Cl [(R)-(-)-Deprenyl.HCl]", "measured on": "TDF", "reported value": 103}
{"compound": "Cl.O=C(O)Cc1cnc[nH]1 [Imidazole-4-acetic acid hydrochloride]", "measured on": "TDF", "reported value": 107}
{"compound": "CCN1CC2(OC(=O)c3ccccc3NC(C)=O)CCC(OC)C34C1C(CC23)C1(O)CC(OC)C2CC4C1(O)C2OC (stereo unspecified)", "measured on": "TDF", "reported value": 103}
{"compound": "CCCC[N+]1(C)C2CC(OC(=O)C(CO)c3ccccc3)CC1C1OC12 (stereo unspecified)", "measured on": "TDF", "reported value": 111}
{"compound": "CCC1CN2CCc3cc(OC)c(OC)cc3C2CC1CC1NCCc2cc(OC)c(OC)cc21.Cl.Cl (stereo unspecified)", "measured on": "TDF", "reported value": 27}
